Data provenance: ChEMBL document CHEMBL6114960

- testSystem: Mineralocorticoid receptor (Homo sapiens, UniProt P08235)
- Sequence (P08235 whole entry): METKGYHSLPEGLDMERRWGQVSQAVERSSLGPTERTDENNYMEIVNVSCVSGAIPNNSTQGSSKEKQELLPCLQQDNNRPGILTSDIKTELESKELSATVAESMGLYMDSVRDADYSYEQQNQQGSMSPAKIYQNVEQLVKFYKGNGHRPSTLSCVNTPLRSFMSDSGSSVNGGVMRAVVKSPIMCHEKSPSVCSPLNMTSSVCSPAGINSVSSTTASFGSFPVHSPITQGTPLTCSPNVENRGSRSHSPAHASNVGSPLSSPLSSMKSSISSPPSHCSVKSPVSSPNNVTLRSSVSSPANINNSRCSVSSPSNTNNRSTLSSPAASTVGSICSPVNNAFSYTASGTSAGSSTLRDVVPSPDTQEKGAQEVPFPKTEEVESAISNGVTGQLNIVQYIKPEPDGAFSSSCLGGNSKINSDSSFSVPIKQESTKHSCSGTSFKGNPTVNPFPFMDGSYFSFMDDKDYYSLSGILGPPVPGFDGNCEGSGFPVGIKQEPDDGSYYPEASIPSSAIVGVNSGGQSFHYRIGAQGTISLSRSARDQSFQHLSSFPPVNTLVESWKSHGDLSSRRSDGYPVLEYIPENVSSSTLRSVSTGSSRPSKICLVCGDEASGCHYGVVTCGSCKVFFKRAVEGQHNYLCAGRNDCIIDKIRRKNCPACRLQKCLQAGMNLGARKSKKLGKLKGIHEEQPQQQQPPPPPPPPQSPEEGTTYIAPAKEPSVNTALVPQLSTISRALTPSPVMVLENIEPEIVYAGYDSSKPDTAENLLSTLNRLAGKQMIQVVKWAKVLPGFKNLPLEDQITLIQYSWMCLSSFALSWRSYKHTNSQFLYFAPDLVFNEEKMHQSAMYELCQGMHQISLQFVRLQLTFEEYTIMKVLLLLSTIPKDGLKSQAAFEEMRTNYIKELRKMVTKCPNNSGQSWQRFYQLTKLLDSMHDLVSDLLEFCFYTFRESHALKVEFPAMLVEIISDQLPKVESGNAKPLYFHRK
- assayProcedure: Agonist activity at mineralocorticoid receptor (unknown origin) transfected in green monkey CV-1 cells co-transfected with NHR responsive luciferase reporter incubated for 18 hrs by luciferase assay
assayEndpoint: EC50

>>> value("O=C(O)c1ccc(-c2ccc(OCc3c(-c4c(Cl)cccc4Cl)noc3C3CC3)cc2)cc1")
"> 10 µM"

###

- testSystem: Retinoic acid receptor gamma (Homo sapiens, UniProt P13631)
- Sequence (P13631 whole entry): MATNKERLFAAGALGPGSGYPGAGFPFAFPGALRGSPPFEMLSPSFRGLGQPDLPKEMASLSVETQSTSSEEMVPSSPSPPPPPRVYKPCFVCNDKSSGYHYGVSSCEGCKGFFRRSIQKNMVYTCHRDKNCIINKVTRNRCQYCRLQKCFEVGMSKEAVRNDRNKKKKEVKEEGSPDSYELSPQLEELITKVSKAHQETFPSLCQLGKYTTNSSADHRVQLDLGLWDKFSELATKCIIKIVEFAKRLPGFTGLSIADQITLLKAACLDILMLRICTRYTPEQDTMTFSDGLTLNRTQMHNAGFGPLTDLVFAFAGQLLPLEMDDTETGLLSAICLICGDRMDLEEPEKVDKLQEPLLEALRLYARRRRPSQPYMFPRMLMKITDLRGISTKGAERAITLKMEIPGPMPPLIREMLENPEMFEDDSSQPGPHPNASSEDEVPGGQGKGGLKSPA
- assayProcedure: Agonist activity at RARgamma (unknown origin) transfected in green monkey CV-1 cells co-transfected with NHR responsive luciferase reporter incubated for 18 hrs by luciferase assay
pEC50: −log10 of the molar value.
assayEndpoint: pEC50

>>> value("O=C(O)c1ccc(-c2ccc(OCc3c(-c4c(Cl)cccc4Cl)noc3C3CC3)cc2)cc1")
"< 5.00"

###

- testSystem: Bile acid receptor (Homo sapiens, UniProt Q96RI1)
- Sequence (Q96RI1 whole entry, the tested form may be a part): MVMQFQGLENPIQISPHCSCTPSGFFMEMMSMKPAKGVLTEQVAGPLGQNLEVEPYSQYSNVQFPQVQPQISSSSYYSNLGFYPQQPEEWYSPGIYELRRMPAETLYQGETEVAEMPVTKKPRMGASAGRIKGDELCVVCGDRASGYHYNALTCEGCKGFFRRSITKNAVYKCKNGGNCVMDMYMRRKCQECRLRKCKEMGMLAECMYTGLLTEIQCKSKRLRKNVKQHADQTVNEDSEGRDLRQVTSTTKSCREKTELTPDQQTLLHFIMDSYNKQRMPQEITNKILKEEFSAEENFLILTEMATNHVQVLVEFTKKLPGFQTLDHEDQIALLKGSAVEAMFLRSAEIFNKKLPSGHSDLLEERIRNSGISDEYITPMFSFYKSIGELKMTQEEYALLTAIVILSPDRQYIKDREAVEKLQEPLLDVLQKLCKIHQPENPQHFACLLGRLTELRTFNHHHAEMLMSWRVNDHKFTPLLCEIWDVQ
- assayProcedure: Agonist activity at FXR-LBD (unknown origin) incubated for 3 hrs in presence of fluorescein-coactivator peptide by TR-FRET analysis
pEC50: −log10 of the molar value.
assayEndpoint: pEC50

>>> value("O=C(NC1CC1)c1cccc(-c2ccc(OCc3c(-c4c(Cl)cccc4Cl)noc3C3CC3)cc2)c1")
6.24
>>> value("O=C(O)c1cccc2nc(-c3ccc(OCc4c(-c5c(Cl)cccc5Cl)noc4C4CC4)cc3)cn12")
6.92
>>> value("Cc1cc(OCc2c(-c3c(Cl)cccc3Cl)noc2C2CC2)ccc1-c1ccc(C(=O)O)cc1")
6.87
>>> value("O=C(O)c1ccc(-c2ccc(OCc3c(-c4c(Cl)cccc4Cl)noc3C3CC3)cc2)c(C(F)(F)F)c1")
6.92
>>> value("O=C(O)c1ccc(-c2ccc(OCc3c(-c4c(Cl)cccc4Cl)noc3C3CC3)cc2)c(F)c1")
6.94
>>> value("CN(C)C(=O)c1ccc(-c2ccc(OCc3c(-c4c(Cl)cccc4Cl)noc3C3CC3)cc2)cc1")
6.32
>>> value("O=C(O)c1ccc(-c2ccc(OCc3c(-c4c(Cl)cccc4Cl)noc3C3CC3)cc2)s1")
6.57

###

- testSystem: UniProt:P06401
- Sequence (P06401 whole entry): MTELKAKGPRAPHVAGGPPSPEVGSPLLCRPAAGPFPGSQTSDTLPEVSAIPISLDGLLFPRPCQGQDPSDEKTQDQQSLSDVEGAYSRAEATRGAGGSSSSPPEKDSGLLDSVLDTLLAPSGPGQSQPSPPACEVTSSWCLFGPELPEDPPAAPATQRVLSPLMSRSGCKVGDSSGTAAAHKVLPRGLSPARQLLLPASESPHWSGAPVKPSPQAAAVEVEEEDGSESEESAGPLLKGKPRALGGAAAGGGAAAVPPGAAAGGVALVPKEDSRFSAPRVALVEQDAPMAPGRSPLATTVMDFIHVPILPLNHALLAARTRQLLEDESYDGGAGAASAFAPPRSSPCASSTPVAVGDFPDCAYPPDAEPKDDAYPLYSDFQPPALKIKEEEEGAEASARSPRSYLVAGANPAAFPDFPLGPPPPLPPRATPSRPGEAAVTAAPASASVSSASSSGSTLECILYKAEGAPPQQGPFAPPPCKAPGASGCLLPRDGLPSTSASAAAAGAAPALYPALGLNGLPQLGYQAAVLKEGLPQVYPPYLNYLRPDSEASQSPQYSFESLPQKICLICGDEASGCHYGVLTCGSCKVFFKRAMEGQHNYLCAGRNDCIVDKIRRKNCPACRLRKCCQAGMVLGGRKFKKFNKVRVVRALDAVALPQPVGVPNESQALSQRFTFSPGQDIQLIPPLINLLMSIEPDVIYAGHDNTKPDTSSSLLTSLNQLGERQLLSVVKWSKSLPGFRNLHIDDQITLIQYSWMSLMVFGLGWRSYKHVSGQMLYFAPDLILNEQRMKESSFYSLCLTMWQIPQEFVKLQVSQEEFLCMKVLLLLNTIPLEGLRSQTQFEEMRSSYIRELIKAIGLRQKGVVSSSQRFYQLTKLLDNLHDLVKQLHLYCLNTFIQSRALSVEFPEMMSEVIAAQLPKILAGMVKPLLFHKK
- assayProcedure: Agonist activity at progesterone receptor (unknown origin) transfected in green monkey CV-1 cells co-transfected with NHR responsive luciferase reporter incubated for 18 hrs by luciferase assay
pEC50: −log10 of the molar value.
assayEndpoint: pEC50

>>> value("O=C(O)c1ccc(-c2ccc(OCc3c(-c4c(Cl)cccc4Cl)noc3C3CC3)cc2)cc1")
"< 5.00"

###

- testSystem: 17-beta-hydroxysteroid dehydrogenase 13 (Homo sapiens, UniProt Q7Z5P4)
- Sequence (Q7Z5P4 whole entry): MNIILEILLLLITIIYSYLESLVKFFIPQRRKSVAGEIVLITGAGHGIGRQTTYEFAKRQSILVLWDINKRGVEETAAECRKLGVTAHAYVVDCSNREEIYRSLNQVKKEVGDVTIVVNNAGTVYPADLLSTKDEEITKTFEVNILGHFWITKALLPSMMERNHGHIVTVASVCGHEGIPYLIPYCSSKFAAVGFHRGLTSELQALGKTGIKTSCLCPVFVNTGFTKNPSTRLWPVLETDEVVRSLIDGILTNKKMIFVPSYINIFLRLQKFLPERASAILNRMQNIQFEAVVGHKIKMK
assayEndpoint: IC50 (µM)

>>> value("O=C(O)C1=CC2NC(c3ccc(OCc4c(-c5c(Cl)cccc5Cl)noc4C4CC4)cc3)=NC2C=C1 (configuration not stated)")
4.35

###

- testSystem: Fatty acid-binding protein, liver (Homo sapiens)
- Sequence (P07148 whole entry): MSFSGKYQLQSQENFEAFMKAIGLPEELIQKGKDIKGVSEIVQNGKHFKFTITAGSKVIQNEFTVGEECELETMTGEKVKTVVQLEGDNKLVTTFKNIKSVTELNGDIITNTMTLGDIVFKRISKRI
assayEndpoint: IC50 (µM)

>>> value("O=C(O)c1ccc(-c2ccc(OCc3c(-c4c(Cl)cccc4Cl)noc3C3CC3)cc2)cc1")
8.5

###

# maps each entry to its pEC50
- testSystem: Bile acid receptor (Homo sapiens)
- assayProcedure: Agonist activity at FXR (unknown origin) transfected in human HepG2 cells incubated for 24 hrs by luciferase assay
- Format: cell-based
pEC50: −log10 of the molar value.
assayEndpoint: pEC50

>>> value("O=C(O)c1ccc(-c2ccc(OCc3c(-c4c(Cl)cccc4Cl)noc3C3CC3)cc2)cc1Cl")
6.62
>>> value("CC(C)c1onc(-c2ccccc2C(F)(F)F)c1COc1ccc(-c2ccc(C(=O)O)cc2)cc1")
6.28
>>> value("O=C(O)c1ccc(-c2ccc(OCc3c(-c4c(Cl)cccc4Cl)noc3C3CC3)cc2)s1")
6.31
>>> value("O=C(O)c1ccc(-c2ccc(OCc3c(-c4c(Cl)cccc4Cl)noc3C3CC3)cc2)c(F)c1")
6.55
>>> value("O=C(O)c1ccc(-c2ccc(OCc3c(-c4c(Cl)cccc4Cl)noc3C3CC3)cc2)nc1")
6.48
>>> value("CNC(=O)c1ccc(-c2ccc(OCc3c(-c4c(Cl)cccc4Cl)noc3C3CC3)cc2)cc1")
6.54
>>> value("O=C(O)c1ccc(-c2ccc(OCc3c(-c4c(Cl)cccc4Cl)noc3C3CC3)c(F)c2)cc1")
6.32
>>> value("Cc1cc(OCc2c(-c3c(Cl)cccc3Cl)noc2C2CC2)cc(C)c1-c1ccc(C(=O)O)cc1")
6.58
>>> value("O=C(O)c1ccc(-c2ccc(OCc3c(-c4c(Cl)cccc4Cl)noc3C3CC3)cc2)cc1")
6.88
>>> value("O=C(O)c1cccc2nc(-c3ccc(OCc4c(-c5c(Cl)cccc5Cl)noc4C4CC4)cc3)cn12")
6.73
>>> value("NC(=O)c1ccc(-c2ccc(OCc3c(-c4c(Cl)cccc4Cl)noc3C3CC3)cc2)cc1")
6.43
>>> value("CN(C)C(=O)c1cccc(-c2ccc(OCc3c(-c4c(Cl)cccc4Cl)noc3C3CC3)cc2)c1")
6.31
>>> value("O=C(O)c1ccc(-c2ccc(OCc3c(-c4c(Cl)cccc4Cl)noc3C3CC3)cc2)c(C(F)(F)F)c1")
6.54
>>> value("Cc1cc(OCc2c(-c3c(Cl)cccc3Cl)noc2C2CC2)ccc1-c1ccc(C(=O)O)cc1")
6.52
